B1: KRT18 (parent)
chain: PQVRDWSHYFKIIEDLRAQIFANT

Variants of: B1
Test: protein stability index of a GFP-peptide fusion (GPS, HEK-293T) (PSI 1-6); higher = more stable;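 note: lentivirally expressed fusions sorted by FACS into six bins by GFP to DsRed ratio, PSI derived from sequencing read proportions per bin multiplied by bin number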
Settings: c terminus: a fixed tail appended
test_readout: protein stability index

| mutation_key | test_readout | reported_result |
| --- | --- | --- |
| N23R | protein stability index | 2.57 |
| Y9C | protein stability index | 1.97 |
| L16M | protein stability index | 2.08 |
| I12V | protein stability index | 2.04 |
| R17W | protein stability index | 1.97 |
| I20N | protein stability index | 3.05 |
| F10V | protein stability index | 1.69 |
| F10I | protein stability index | 2.23 |
| I13D | protein stability index | 2.9 |
| D15E | protein stability index | 2.28 |
| K11E | protein stability index | 1.52 |
